Where these numbers come from: ChEMBL document CHEMBL3433997

Below, each of the molecules is paired with its reported inhibition value.
Molecular target: Glucose transporter (Leishmania mexicana)
Assay: ST_JUDE_LEISH: Cytotoxicity at 2uM final concentration against transgenic Leishmania Mexicana promastigotes LmGT2 that are glucose transport deficient and complemented with the L. Mexicana glucose transporter 2. Activity is measured by DNA content using SYBR green in vitro
Type: functional
Your answer is read as %, so omit the unit and give the number.

# input Requested field: inhibition. Item: Cc1nn(-c2ccccc2)nc1C(=O)NC1CCN(CCNC(=O)c2ccc(Cl)c(Cl)c2)CC1
# output 1.85

# input // query inhibition value for entry CC(C)CNCc1cccc(-c2cccc(CNC3CCN(Cc4ccccc4)CC3)c2)c1
# output 1.83

# input What value of inhibition has been reported for the following molecule? CN(C)c1ccc(-c2nc3cc(N)ccc3[nH]2)cc1
# output 0.22

Others:
# input Dear colleague, I am looking for the recorded inhibition of the following molecule: NCC(=O)Nc1cccc(Nc2nccc(-c3c(-c4cccc(NC(=O)c5ccccc5)c4)nn4ccccc34)n2)c1
# output 1.14

# input Field request: inhibition | item: Cc1cc(N2CCC(NS(=O)(=O)c3ccccc3)CC2)nc(Nc2cccc(C#N)c2)n1
# output 45.6

---

Parameter: inhibition. Scope: all listed entries.
Molecular target: Glucose transporter (Leishmania mexicana) (UniProt O61059)
Assay: ST_JUDE_LEISH: Cytotoxicity at 2uM final concentration against transgenic Leishmania Mexicana promastigotes LmGT2 that are glucose transport deficient and complemented with the L. Mexicana glucose transporter 2. Activity is measured by DNA content using SYBR green in vitro
Assay type: functional
Answer in %, number only, no unit symbol.

# input Entry CCNc1cc(C(=O)N[C@@H](Cc2ccccc2)[C@H](O)CNC23CCC(CC2)C3)cc(N2CCCCS2(=O)=O)c1 has what inhibition?
# output 3.19

---

The reader will find reported inhibition values listed item by item below.
Target: Glucose transporter (Leishmania mexicana) (UniProt O61059)
Assay: ST_JUDE_LEISH: Cytotoxicity at 2uM final concentration against transgenic Leishmania Mexicana promastigotes LmGT2 that are glucose transport deficient and complemented with the L. Mexicana glucose transporter 2. Activity is measured by DNA content using SYBR green in vitro
Format: functional
Please respond with the number in % and leave the unit unwritten.

# input Which inhibition value is on record for Cc1ccnc(NC(c2cccc(Cl)c2Cl)c2ccc3cccnc3c2O)c1 (centres undefined) ?
# output -0.63

# input Which inhibition is listed for O=C(Nc1nc2cc(S(=O)(=O)NCc3ccc(Cl)c(Cl)c3)ccc2n1CCCn1ccnc1)c1ccc(Cl)cc1 ?
# output 4.53

# input For the compound shown here, CC(C)(C)c1ccc(N2C(N)=NC(N)=NC2(C)C)cc1Cl , give the reported inhibition.
# output 5.67

# input What value of inhibition has been reported for the following compound? CC(C)N1CCN(C(=O)c2ccc(CNCCCN3CCN(c4cccc(Cl)c4Cl)CC3)s2)CC1
# output -0.54

# input Could you tell me which inhibition is on file for COC(=O)c1ccc(Nc2nccc(Nc3ccc(Oc4ccccc4)cc3)n2)cc1 ?
# output 2.57

New cases:
# input Request the reported inhibition associated with CC(C)C[C@H](NC(=O)c1cc2ccccc2s1)C(=O)N[C@H]1CCN(Cc2ccc(OCCCN(C)C)c(Cl)c2)C1
# output 1.32

# input Item under review: N#Cc1ccc2c(c1)CCN(CCC1CCC(NC(=O)/C=C/c3cccc4ccccc34)CC1)CC2 (centres undefined) . Reported inhibition?
# output 2.63

# input Entry Cc1ccc(-c2cc(C(=O)Nc3ccc(S(=O)(=O)N4CCCC(C)C4)cc3)[nH]n2)c(O)c1 (centres undefined) has what inhibition?
# output -1.01

# input Look at this compound and give its reported inhibition. c1ccc(-n2ncc(CNCc3ccc(-c4ccc(-c5nc6ccccc6[nH]5)s4)cc3)n2)cc1
# output 0.43

---

Molecular target: Hexose transporter 1 (Plasmodium falciparum) (UniProt O97467)
Assay: ST_JUDE_LEISH: Cytotoxicity at 2uM final concentration against transgenic Leishmania Mexicana promastigotes LmPfHT that are glucose transport deficient and complemented with the Plasmodium falciparum hexose transporter. Activity is measured by DNA content using SYBR green in vitro
Assay type: functional
endpoint: inhibition (%)
Give your result in % as a bare value.

Completed entries (count: 5):
# input # lookup: inhibition of O=C(Nc1ccc(CCN2CCC(c3nc(COCC(F)(F)F)c(-c4ccccc4)o3)CC2)cc1)c1ccc(F)cc1
# output 2.23

# input // lookup inhibition for CNC(=O)c1cnc(Nc2ccc(N3CCN(C)CC3)cc2)nc1Nc1cccc(OC(C)C)c1
# output 1.38

# input # get_value(readout='inhibition', item= CCOC(=O)c1ccc2[nH]c(-c3ccc(C(=O)NC4CCN(Cc5ccccc5)CC4)s3)nc2c1 )
# output 4.85

# input Recorded inhibition of N=C(Nc1cccc(Cc2ccccc2)n1)Nc1ncccn1 , please.
# output 1.79

# input Any idea what its inhibition is? The molecule is COc1cc(C(=O)N2N=C(c3c(-c4ccccc4)c4cc(Br)ccc4[nH]c3=O)CC2c2cccc([N+](=O)[O-])c2)cc(OC)c1OC (centres undefined)
# output 3.48

More entries:
# input Which inhibition is reported for this molecule? COc1ccc(CN2CCC(N3CC(c4ccccc4)(c4ccccc4)OCC3=O)C2)c(O)c1 (centres undefined)
# output -0.28

# input For COc1ccc(Cl)cc1NC(=O)C(C)N1CCN(S(=O)(=O)c2ccccc2F)CC1 (centres undefined) , what is its reported inhibition?
# output 3.53

# input Which inhibition is listed for Cc1cccc2nc(-c3cccc(-c4cccc(NC(=O)c5cccnc5)c4)c3)[nH]c12 ?
# output -0.15

# input Report inhibition for COc1cccc2cc(C(=O)N[C@@H](CC(C)C)C(=O)N[C@H](/C=N/N(C)C(=O)OC(C)(C)C)CC(=O)OC(C)(C)C)oc12 please.
# output 3.79

# input Reported inhibition, molecule CC(C)N1CCN(C(CN2CCN(CCCOc3ccc(-c4ccccc4)cc3)CC2)c2ccc(F)cc2)CC1 (centres undefined) : ____
# output 32

# input Which inhibition is reported for this molecule? O=C(/C=C/c1ccc(C(F)(F)F)cc1)NCCCCCN1CCCN(C(=O)Nc2ccc(Cl)cc2)CC1
# output 4.49

---

Listing: inhibition of selected molecules
Target: Glucose transporter (Leishmania mexicana) (UniProt O61059)
Experiment: ST_JUDE_LEISH: Cytotoxicity at 2uM final concentration against transgenic Leishmania Mexicana promastigotes LmGT2 that are glucose transport deficient and complemented with the L. Mexicana glucose transporter 2. Activity is measured by DNA content using SYBR green in vitro
Type: functional
Lab book: enter the figure in %, no units written.

# input Can you look up the measured inhibition of Cc1ccc(-n2c(C)nc3c(Nc4ccc(-c5ccncc5)cc4)ncnc32)c(C)c1 for me?
# output 81

# input Look up inhibition: CCOc1ccc(C(=O)Nc2cc(Br)c3c(c2)CNCC3)cc1Cl
# output -0.05

# input # query: inhibition of entry C[C@@H]1CC[C@H](NC(=O)[C@H](CC2CCCC2)NC(=O)N2CCNCC2)C(=O)CN1S(=O)(=O)c1ccccn1
# output -0.32

# input What measured inhibition goes with NC1=NC2(CCCC2)C(c2ccc(Cl)c(Cl)c2)C(N)=N1 (centres undefined) ?
# output 4.7

# input What value of measured inhibition is listed for CN(C)CCOc1ccc2c(=O)cc(CCc3cccc(F)c3F)n(CC(=O)N(C)Cc3ccc(-c4ccc(C(F)(F)F)cc4)cc3)c2c1 ?
# output 0.06

# input GET /values?readout=inhibition&item= O=C(NC(NC(=S)Nc1ccc([N+](=O)[O-])cc1)C(Cl)(Cl)Cl)c1cccc(Cl)c1 (centres undefined)
# output -0.06

Further cases:
# input For the molecule COc1cc(F)c2ncc(Cl)c([C@@H](O)CN3CCC(NCc4ccc5c(n4)NC(=O)CO5)CC3)c2c1 , what inhibition is on record?
# output 2.71

# input Item under review: COc1ccc(C2=[N+]([O-])c3ccccc3C2=O)cc1 . Reported inhibition?
# output -0.74

# input GET /values?readout=inhibition&item= CC1CCN(Cc2c(O)ccc3c(O)c(-c4nc5ccccc5s4)c(=N)oc23)CC1
# output -0.56

---

Target: Hexose transporter 1 (Plasmodium falciparum) (UniProt O97467)
Assay: ST_JUDE_LEISH: Cytotoxicity at 2uM final concentration against transgenic Leishmania Mexicana promastigotes LmPfHT that are glucose transport deficient and complemented with the Plasmodium falciparum hexose transporter. Activity is measured by DNA content using SYBR green in vitro
Format: functional
endpoint: inhibition (%)
Hi! Could you send only the number? It should be in %, unit omitted.

Known results for molecules:
# input Need inhibition, item Cc1c(Cc2ccccc2)c(=O)oc2c(C)c3c(cc12)CN(CC(C)c1ccccc1)CO3 (stereo not given)
# output 4.73

# input Sample COc1cc2c(cc1OC)C(C)(C)CN1Cc3c(c(CO)c(OC)c(OC)c3OC)CC21 (stereo not given) — what was its inhibition?
# output 3.72

# input Consider the molecule CC(=O)Oc1c(C2CCN(CCCCNC(=O)c3ccc(NC(=O)c4ccc(Cl)cc4)cc3)CC2)ccc2ccccc12 and give its measured inhibition.
# output 3.63

# input For Cc1cc(N[C@@H](Cc2ccccc2)C(=O)NCCOc2ccccc2)nc(NCCc2ccccn2)n1 , what is its reported inhibition?
# output 6.41

# input Given the molecule Cn1c(=O)c2nc(-c3ccc(Cl)cc3)nnc2n(CCCC#N)c1=O , what is its reported inhibition?
# output 7.41

# input # lookup: inhibition of CC(C)(CNCc1ccc(F)c(F)c1)c1nc(-c2ccc(Cl)c(O)c2)c(-c2ccncc2)[nH]1
# output 0.25

# input Endpoint output: inhibition of CCCCN1CCN(CC(O)CNC(=O)Nc2ccc(Cl)cc2)CC1 (stereo not given) . Value?
# output 3.59

# input What inhibition value was documented for this molecule, O=[N+]([O-])c1ccc(/C=N/Nc2cc(-c3ccccc3)nc3ccccc23)o1 ?
# output 7.41

# input Request the reported inhibition associated with CC(Nc1cc(-c2ccccn2)nc(-c2ccccn2)n1)c1ccccc1 (stereo not given)
# output 12.8

Next:
# input Look at this molecule and give its reported inhibition. Fc1cccc(C=NNc2ccnc3cc(Cl)ccc23)c1
# output 4.64
